The reported measurements were obtained from paper PMC7235712.

measurement protocol: in vitro
study conditions: cattle (Bos taurus)
readout name: CC50

- C[C@@]1(O)[C@H](O)[C@@H](CO)O[C@H]1n1cnc2c(=O)[nH]c(N)nc21 [RC2, 2′-C-methylguanosine]: > 100 µM

* * *

Catalogue of molecules with associated CC50
measurement protocol: in vitro
study conditions: African green monkey (Cercopithecus aethiops)
readout name: CC50

• Cc1cc(CCCOc2c(C)cc(-c3noc(C(F)(F)F)n3)cc2C)on1 = > 100 µM
• O=c1cnn([C@@H]2O[C@H](CO)[C@@H](O)[C@H]2O)c(=O)[nH]1 = ≥ 14 µM
• Nc1nc2c(ncn2COCCO)c(=O)[nH]1 = > 100 µM
• COc1c(C)c2c(c(O)c1C/C=C(\C)CCC(=O)O)C(=O)OC2 = > 100 µM

* * *

Test system: CV-B4
measurement protocol: Plaque reduction in Vero-76 monolayers, CV-B4
Format: cell-based, human enterovirus B (coxsackie virus B4)
study conditions: Enterovirus B, CVB4, reference compound
pEC50: −log10 of the molar value.
readout name: pEC50

* Cc1cc(CCCOc2c(C)cc(-c3noc(C(F)(F)F)n3)cc2C)on1 [RC3, Pleconaril] | 5.70

* * *

Test system: HIV-1IIIB
measurement protocol: microbe, parasite or virus in culture
Format: cell-based, human immunodeficiency virus type-1
study conditions: Human immunodeficiency virus 1, MT4, read-out: EC50 HIV-1IIIB
pEC50: −log10 of the molar value.
readout name: pEC50

- O=C1Nc2ccc(Cl)cc2[C@@](C#CC2CC2)(C(F)(F)F)O1: 8.52
